System: KRAS G12V-dependent Ba/F3 cells
Experiment: Ba/F3 proliferation assay, KRAS G12V
Format: cell-based
Details: Mus musculus, BaF3, 72 h, AlamarBlue
Entries whose IC50 is below 10 nM take true; entries at or above 10 nM take false.

Dear colleague, could you confirm whether IC50 of CN[C@H]1CCN(c2cc(O[C@@H](C)[C@@H]3CCCN3C)nc(-c3noc4c3CCC[C@@]43CCCc4sc(N)c(C#N)c43)n2)C1 falls below 10 nM? Thanks.
false

Could you do the same for C[C@H](Oc1cc(N2CC[C@H](N(C)C)C2)nc(-c2noc3c2CCC[C@@]32CCCc3sc(N)c(C#N)c32)n1)[C@@H]1C[C@@H](F)CN1C , please?
false

Please do the same for C[C@H](Oc1cc([C@@H]2CCOC2)nc(-c2noc3c2CCC[C@@]32CCCc3sc(N)c(C#N)c32)n1)[C@@H]1CCCN1C as well.
true

What do you get for C[C@H](Oc1cc(-c2ccncc2)nc(-c2noc3c2CCC[C@@]32CCCc3sc(N)c(C#N)c32)n1)[C@@H]1CCCN1C ?
false

Can you handle C[C@H](NC(=O)c1ccn(-c2cc(O[C@@H](C)[C@@H]3CCCN3C)nc(-c3onc4c3CCC[C@@]43CCCc4sc(N)c(C#N)c43)n2)n1)c1ccccn1 next?
true

Lookup C[C@H](Oc1cc(-n2ccncc2=O)nc(-c2noc3c2CCC[C@@]32CCCc3sc(N)c(C#N)c32)n1)[C@@H]1CCCN1C
true
